// provenance: paper PMC6600665

Tested on: A549 cells
Test: in vitro
Type: cell-based
Conditions: A549
Method: Potential cell toxicity of the tested compounds was evaluated by ATP quantification using the CellTiter-Glo® luminescent cell viability assay (Promega, Madison, WI, USA). […] After incubation, 20 µL of CellTiter-Glo® reagent were added per well and incubated at room temperature in the dark for another 30 min. Luminescence was quantified by an EnVision multi-plate reader (PerkinElmer, Rodgau, Germany).
Peptide text beside a SMILES is read from it.
measured_property: Cytotoxicity A549 Ratio (IC50 cytotoxicity/IC50 ClpP)
# answer = number (no unit)

Field: example entries. Status: answers known.
O=c1oc(Cl)c(Cl)c2ccccc12 [3,4-DIC, 3,4-dichloroisocoumarin] | 9.12
CC(C)C[C@H](NC(=O)OCc1ccccc1)C(=O)N[C@@H](Cc1ccc(O)cc1)C(=O)CCl [Z-LY-CMK] (HELM PEPTIDE1{[O=C(OCc1ccccc1)[*:2]].L.Y.[ClC[*:1]]}$$$$V2.0) | 0.51
CO[C@@]1(NC(=O)CSCC#N)C(=O)N2C(C(=O)O)=C(CSc3nnnn3C)CS[C@@H]21 [Cefmetazole, cefmetazole] | 73.53

Next compound, please.
Task: Give the measured Cytotoxicity A549 Ratio (IC50 cytotoxicity/IC50 ClpP) of N.N.[Cl-].[Cl][Pt+].c1ccncc1 [cDPCP] .
Result: 5.33
